Provenance of the data: ChEMBL document CHEMBL1201862

Tested on: TK-10
Experiment: NCI tumour cell line growth inhibition, 48 h
Activity calls are given as the source filed them. Rule as the data show it: active = GI50 up to about 1.1 µM and inactive = higher.
readout name: GI50

As a guide, the following entries are already answered.
INSERT INTO results (molecule, readout_name, reported_measurement) VALUES
  ('C/C(=N\N(C)C)C(CN1CCCCC1)C(c1ccccc1)c1c(O)c2ccccc2oc1=O (centres undefined)', 'GI50', '> 100 µM (inactive)'),
  ('CCCCCCCCCCCCCCCCCCOP(=O)([O-])OC1CC[N+](C)(C)CC1', 'GI50', '2.04 µM (inactive)'),
  ('O=[N+]([O-])C(/C=C(\Cl)[N+](=O)[O-])=C(N1CCOCC1)N1CCOCC1', 'GI50', '47 µM (inactive)');

# context switch: different molecule, same GI50
Just so you know, measured GI50 for CCOC(=O)c1cc(NC(=O)c2ccccc2)c(=O)n2c(cc3c(Cl)cccc32)c1O came out at > 100 µM (inactive)

====

Test system: UACC-257
Assay: NCI tumour cell line growth inhibition, 48 h
The source made the active and inactive calls. Cut-off read from the data, not from the text of the source: active = GI50 up to about 1.1 µM and inactive = higher. Where a SMILES comes first, the peptide text is derived from it. The star is where a group is joined. Cbz = O=C(OCc1ccccc1)*; NHNH2 = NN*
readout name: GI50

INSERT INTO measurements (molecule, readout_name, reported_measurement) VALUES
  ('CCOC(=O)CCC(NC(=O)OCc1ccccc1)C(=O)NC(CCC(=O)OCC)C(=O)NN (configuration not stated) (Cbz-Glu(OEt)-Glu(OEt)-NHNH2; configuration not given here)', 'GI50', '> 100 µM (inactive)'),
  ('CO/C(C)=N/CCC1=CCCCC1', 'GI50', '> 100 µM (inactive)'),
  ('O=C(O)c1cc2cc(OCc3ccccc3)ccc2[nH]1', 'GI50', '5.06 µM (inactive)');

// field: GI50; key: CC1=NC(C)(C)[N+]([O-])=C1 ; value = > 10 µM (inactive)

The recorded GI50 for COc1ccc(/C=N/C23CC4CC(CC(C4)C2)C3)cc1 is > 100 µM (inactive)

Per the records, this molecule ( Cc1cc(Cc2c(C)c(C)c(Cc3cc(C)cc(C(C)(C)C)c3O)c(C)c2C)c(O)c(C(C)(C)C)c1 ) has GI50 equal to > 100 µM (inactive)

Notebook: COc1cc([C@@H]2c3cc4c(cc3[C@@H](NC(=O)c3cccc(N)c3)C3COC(=O)[C@@H]32)OCO4)cc(OC)c1O (some centres not stated) , GI50 read as 10.7 µM (inactive)

// O=C(/C=C/c1ccc2c(c1)OCO2)Cc1nc2ccccc2[nH]c1=O : GI50 value = 25.4 µM (inactive)

The reported value for Cc1ccc(S(=O)(=O)N2CCN(S(=O)(=O)c3ccc(C)cc3)CCN(S(=O)(=O)c3ccc(C)cc3)Cc3cc(C#N)c(C#N)cc3CN(S(=O)(=O)c3ccc(C)cc3)CC2)cc1 in terms of GI50 is > 100 µM (inactive)

Consider CCCCCCCC/C=C\CCCCCCCC(=O)O . Its measured GI50 is 105 µM (inactive)

So for O=C1NC(=O)C(C(CC(=O)c2ccc(Cl)cc2)c2ccc(Cl)cc2)C(=O)N1 (configuration not stated) , the logged GI50 turned out to be > 100 µM (inactive)

C/C(CC(=O)Nc1ccc(C)c(C)c1)=N\N(c1ccccc1)c1ccccc1 has a reported GI50 of > 100 µM (inactive)

====

System: DMS-273
Experiment: NCI tumour cell line growth inhibition, 48 h
Active and inactive are the calls of the source. Cut-off read from the data, not from the text of the source: active = GI50 up to about 1.1 µM and inactive = higher.
Pick one: T = active, F = inactive

Please review the following examples before continuing.
INSERT INTO assay_data (compound, assigned_label) VALUES
  ('CCOC(=O)c1cnc2oc(-c3ccc(OC)cc3)nn2c1=O', 'F'),
  ('Oc1cc(-c2c[nH]c3ccccc23)nc2cc3c(cc12)OCO3', 'F'),
  ('C[N+](C)(C)CC1CCc2ccccc2C1=O (centres undefined)', 'F'),
  ('C1=CC=C2NCCOCC/N=C3/C=CC=CC=C3NCCOCC/N=C\2C=C1', 'F'),
  ('COc1ccc(S(=O)(=O)N/N=C/c2cc(I)cc([N+](=O)[O-])c2O)cc1OC', 'F'),
  ('CC(=O)OC1COC(n2c(=S)n(-c3ccccc3)c(=O)c3cc(Br)ccc32)C(OC(C)=O)C1OC(C)=O (centres undefined)', 'F'),
  ('O=c1c2cc(Br)ccc2nc(CNc2ccccc2)n1-c1ccccc1', 'F'),
  ('COc1ccc(C2=Nc3ccccc3SC(C)C2)cc1OC (centres undefined)', 'F');

## Input Please share the test call associated with Oc1cccc2nc3cc(CN4CCOCC4)c(CN4CCOCC4)cc3nc12 .
## Output F

## Input Could you please tell me the result logged for N#Cc1cccc(/C=N/C23CC4CC(CC(C4)C2)C3)c1 in this assay?
## Output F

## Input State the result this test recorded for CC1(O)C(C)(O)C(C)(O)C1(C)O (centres undefined) .
## Output F

## Input What classification did CCCCCCCCCCCC(=O)OCC1OC(n2cc(F)c(=O)[nH]c2=O)C(N)C(O)C1O (centres undefined) end up with in this test?
## Output F

## Input Given COc1cc([C@@H]2c3cc4c(cc3[C@@H](NC(=O)c3cccc(N)c3)C3COC(=O)[C@@H]32)OCO4)cc(OC)c1O (some centres undefined) , state the outcome it received in this test.
## Output T

## Input Could you check what this test reported for CCOC(=O)NN1C(=O)C(=P(c2ccccc2)(c2ccccc2)c2ccccc2)C(C(=O)OC)=C1C ?
## Output F

====

System: OVCAR-4
Assay: NCI tumour cell line growth inhibition, 48 h
The source made the active and inactive calls. Rule as the data show it: active = GI50 up to about 1.1 µM and inactive = higher.
The reply should name one outcome from Yes = active, No = inactive

INSERT INTO assay_data (compound, assigned_label) VALUES
  ('CCCCCCCC/C=C\CCCCCCCC(=O)O', 'No'),
  ('c1ccc(Nc2nnc(-c3ccccc3Nc3ccccc3-c3nnc(Nc4ccccc4)s3)s2)cc1', 'No');

## Input What classification did COC(=O)[C@]12CC3C=CC1N(C3)C(CBr)c1c2n(S(=O)(=O)c2ccccc2)c2ccccc12 (stereo partly drawn) end up with in this test?
## Output No

## Input Could you kindly confirm the outcome this assay logged for Cc1ccc(/N=N/c2c(O)ccc3cc(S(=O)(=O)O)ccc23)cc1 ?
## Output No

## Input Entry CN(C)CC(CC1=C(CC(CN(C)C)N(C)C)CCC1)N(C)C (stereo not drawn) : call = ?
## Output No

## Input Short answer needed: outcome of this test for CO[P@]1(=O)O[C@@H](c2ccccc2)[C@H](O)[C@]1(O)c1ccccc1 ?
## Output No

## Input In this assay, the call recorded for CN(CCCNC(=O)c1nn(-c2ccccc2)c2c1ccc1ccccc12)CCCNC(=O)c1nn(-c2ccccc2)c2c1ccc1ccccc12 was what?
## Output No

## Input What was the test verdict on NS(=O)(=O)c1cc(C(=O)O)c(Cl)c([N+](=O)[O-])c1Cl ?
## Output No

## Input Lab log entry: COC(=O)[C@@H](NC1(c2ccccc2)c2ccccc2-c2ccccc21)[C@H](OC(=O)[C@H]1CCCN1S(=O)(=O)c1ccccc1)C(=O)OC — outcome as called in the assay?
## Output No

## Input How was O=C(c1ccco1)C1CC(c2ccc3ccccc3c2O)=NN1 (stereo not drawn) classified in this test?
## Output No

====

Quick list: GI50 per entry.
Tested on: ACHN
Test: NCI tumour cell line growth inhibition, 48 h
Active and inactive are the calls of the source. Cut-off read from the data, not from the text of the source: active = GI50 up to about 1.1 µM and inactive = higher.

Below are worked cases with known answers.
INSERT INTO assay_data (compound, reported_measurement) VALUES
  ('COc1cc(C(C)c2cc3c(cc2OCCCCOc2cc4c(cc2C(C)c2cc(OC)c(OC)c(OC)c2)OCO4)OCO3)cc(OC)c1OC (stereo not given)', '69.5 µM (inactive)'),
  ('O=[N+]([O-])c1ccc(/C(=C\c2ccccc2)Cn2ccnc2)cc1', '29.8 µM (inactive)'),
  ('CC1CN=C(Nc2ccc(F)c(Cl)c2)S1 (stereo not given)', '> 100 µM (inactive)');

Summary: COP(=O)(OC)/C(=C\C1=CN(C(c2ccccc2)(c2ccccc2)c2ccccc2)CN1)NC=O , ACHN, GI50 = 15.1 µM (inactive)

ACHN assay, compound O=c1ccn(C2(CO)C=C(CO)C(O)C2O)c(=O)[nH]1 (stereo not given) , recorded GI50 = > 25.7 µM (inactive)

====

System: HCT-116
Test: NCI tumour cell line growth inhibition, 48 h
Calls of active or inactive are those of the source. Rule as the data show it: active = GI50 up to about 1.1 µM and inactive = higher.
// values below are reported GI50

Examples with answers:
INSERT INTO assay_data (compound, readout_name, reported_measurement) VALUES
  ('COc1cc(C(C)c2cc3c(cc2OCCCCOc2cc4c(cc2C(C)c2cc(OC)c(OC)c(OC)c2)OCO4)OCO3)cc(OC)c1OC (stereo not drawn)', 'GI50', '31.7 µM (inactive)'),
  ('COc1ccc([C@]23CCN(S(=O)(=O)c4ccc(C)cc4)[C@H]2[C@H](CO)C2(CC3)OCC(C)(C)CO2)cc1OC', 'GI50', '> 100 µM (inactive)'),
  ('CC(C)C(=O)OCC1OC(n2c(Br)nc3c(=O)[nH]c(N)nc32)C(OC(=O)C(C)C)C1OC(=O)C(C)C (stereo not drawn)', 'GI50', '30.1 µM (inactive)'),
  ('Cn1c(=O)cc(NNc2ccc(Cl)c(Cl)c2)[nH]c1=O', 'GI50', '7.19 µM (inactive)'),
  ('Cn1c(=O)c2c(ncn2CCSS(=O)(=O)O)n(C)c1=O', 'GI50', '> 100 µM (inactive)'),
  ('CNC(C)Cc1ccc(O)cc1 (stereo not drawn)', 'GI50', '> 100 µM (inactive)'),
  ('COc1cccc2c1C(=O)c1c(O)c3c(c(O)c1C2=O)CC(O)(C(C)=O)CC3O (stereo not drawn)', 'GI50', '2.41 µM (inactive)'),
  ('CC(=O)C1(C(=O)C(=[N+]=[N-])S(=O)(=O)c2ccccc2)CC1', 'GI50', '> 100 µM (inactive)');

Note to self: GI50 recorded for C=CCNC(=O)NNC(O)(C(=O)OCC)C(F)(F)F (stereo not drawn) was > 100 µM (inactive)

Entry C/C(CC(=O)Nc1ccc(C)c(C)c1)=N\N(c1ccccc1)c1ccccc1 ; GI50 = 43.4 µM (inactive)

For this compound ( CC1(C)CCc2cc3c(cc2O1)OCCC3=O ), measured GI50 is > 100 µM (inactive)

Given item O=C(CC(=O)N1N=C(N2CCCCC2)CC1c1ccccc1)Nc1ccc(Cl)cc1 (stereo not drawn) , the value recorded as its GI50 is > 100 µM (inactive)

The compound listed as CO[P@]1(=O)O[C@@H](c2ccccc2)[C@H](O)[C@]1(O)c1ccccc1 has a reported GI50 of > 100 µM (inactive)
